- Method: protein stability index of a GFP-peptide fusion (GPS, HEK-293T) (PSI 1-6); higher = more stable;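 note: 24-mer peptide tiles fused after GFP, lentivirally expressed, FACS-sorted into six equal bins by GFP/DsRed ratio, decoded by Illumina sequencing, PSI is the read-weighted mean bin number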
- Assay context: treatment: MLN4924 1 uM, 8 h; c terminus: a fixed tail appended
Recorded metric: protein stability index

• HTLNNLVEKLLREEAEGARWTSYR [TRIM35] = 2.57
• AVGDRQDGLREQLQAPVPPDSVPS [PBXIP1] = 5.37
• PLMPGMPPVMPGMPPGLHHQRKYT [ZNF207] = 4.11
• TYTHGLGLHRRPGAGHCSASPGPA = 3.48
• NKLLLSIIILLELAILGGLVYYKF [VTI1B] = 2.84
• GRYVKENCKPLKSYMLQDSLEHVQ [CLK3] = 3.08
• MTLAANHELMLRFKDEYKSENIKL [CCDC89] = 3.72
• TAPSGGQWGAEPEGSCYQTFRQYC [RNF208] = 2.89
• GDAFGSSASEPQPASQAASSSSAS [SNAP91] = 5.32
• EEEMNALRGQVGGEINVEMDAAPG [KRT17] = 5.53
• TFNPHKRISAFRALQHSYLHKDEG [CDK4] = 3.12
• QDLLDVIRIKLDPCHPTVKNWRNF [EDARADD] = 2.35
• GPGAHILRRKSPASGQGPMCNVKA [ADAMTS4] = 3.76
• EVLIGAGYSTPADIWSTACMAFEL [SRPK2] = 2.61
• QMMPYMQPVMQSDRTAIRSDTTHL [KLHL13] = 3.5
• VENECYQVFLDRINRADYCPECYP [TOR1AIP2] = 2.62
• MEHLIYGEPRKLLTQDWVQENYLE [MAGEA10] = 3.47
• DSMEGKRSPYAGLQLGAAKKPPVT [TRIM29] = 4.52
• PGHSGVSCEEVAASSASLEPMWSG [EMID1] = 5.08
• GVSKVGLRKIIDFIYTAKLSLNMD [KLHL13] = 2.83
• EALLKLLAGLTRPDVRPPLGRGLV [SEPHS2] = 2.32
• PRLVSETAERKQEQKTGTEAEAAD [MFSD9] = 5.61
• WFQNKRSKFKKLMKQGGAALEGSA [DLX1] = 3.01
• EVEWTEDLALDLGPQSRELTLKVL [C2CD2L] = 3.6
• RLGPYVLLEPEEGGRAYQALHCPT [TRIB3] = 2.87
• CESLTYGLPFILRPTSCWQLDWDE [M1AP] = 2.04
• ALSDAEFEGEGDYEEGMYADWWQE [P3H4] = 5.15
• RSHSDSLDHDIFQLIDPDENKENE [CDC25A] = 5.48
• DNAVKNHWNSTIKRKVDTGGFLSE [MYBL2] = 3.71
